- assayText: Plasma pharmacokinetics of ceralasertib (HPLC-MS/MS, NCA)
- Assay type: in vivo, human
- measurementContext: human, plasma, oral, 20 mg, 20 mg day 0; 4 h; read-out: Plasma concentration, individual patients
assayEndpoint: concentration at 4 h (ng/mL)
# unit: ng/mL | format: bare number

I am curious: what concentration at 4 h value has been reported for C[C@@H]1COCCN1c1cc(C2([S@](C)(=N)=O)CC2)nc(-c2cc[nH]c3nccc2-3)n1 ?
885

====

- assayText: Plasma pharmacokinetics of ceralasertib (HPLC-MS/MS, NCA)
- Type: in vivo, human
- measurementContext: human, plasma, oral, 20 mg, 20 mg day 1; 4 h; read-out: Plasma concentration, individual patients
assayEndpoint: concentration at 4 h

I am curious: what concentration at 4 h value has been reported for C[C@@H]1COCCN1c1cc(C2([S@](C)(=N)=O)CC2)nc(-c2cc[nH]c3nccc2-3)n1 [ceralasertib] ?
1020 ng/mL

FYI, the data here is from paper PMC10786692.
